Source listed as patent US20240101668A1.

# testTarget: T1, huCLL1-Q244-Avi-Tev-His (human, UniProt Q5QGZ9 65-265);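 also: Bio-layer interferometry with scFvs captured on biosensors via anti-V5 antibody, exposed 2 min to CLL-1 K244 or Q244 protein, 5 min dissociation, scored as binding, no binding or ambiguous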
# T1 construct: extracellular domain; also called CLL-1 K244Q
# T1 sequence (looked up): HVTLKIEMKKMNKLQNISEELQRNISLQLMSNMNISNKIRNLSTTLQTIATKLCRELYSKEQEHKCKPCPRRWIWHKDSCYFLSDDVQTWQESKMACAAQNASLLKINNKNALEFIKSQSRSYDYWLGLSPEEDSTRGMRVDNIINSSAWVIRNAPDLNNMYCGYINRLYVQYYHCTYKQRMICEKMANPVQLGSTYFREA
# assayRemarks: BLI
valueKind: binding result

{"binder": "Polypeptide No. 48 (scFv, V domains shown, scFv) VH: EVQLLESGGGLVQPGGSLRLSCAASGFNFDDYAMHWVRQAPGKGLEWVSVIYSGGSTYYADSVKGRFTISRDNSKNTLYLQMNSLRAEDTAVYYCTRHDFDYWGQGTLVTVSS VL: DIQMTQSPSSLSASVGDRVTITCRASQSISTYVNWYQQKPGKAPKLLIYAASSLQSGVPSRFSGSGSGTDFTLTISSLQPEDFATYYCQQDYSYPYTFGQGTKVEIKR", "valueKind": "binding result", "reading": "no binding"}
{"binder": "Polypeptide No. 46 (scFv, V domains shown, scFv) VH: QVQLVQSGAEVKKPGASVKVSCKASGYTFTSYYMHWVRQAPGQGLEWMGMINPSAGSTSYAQKFQGRVTMTRDTSTSTVYMELSSLRSEDTAVYYCASVDSSGWYAPFDYWGQGTLVTVSS VL: DIQMTQSPSSLSASVGDRVTITCRASQSISTYLNWYQQKPGKAPKLLIYDASNLETGVPSRFSGSGSGTDFTLTISSLQPEDFATYYCQQANSFPPTFGGGTKVEIKR", "valueKind": "binding result", "reading": "no binding"}
{"binder": "Polypeptide No. 60 (scFv, V domains shown, scFv) VH: QVQLVQSGAEVKKPGSSVKVSCKASGGTFSSYAISWVRQAPGQGLEWMGGIIPMFGTANYAQKFQGRVTITADESTSTAYMELSSLRSEDTAVYYCARDLGYSNAGGTLHYWGQGTLVTVSS VL: EIVMTQSPATLSVSPGERATLSCRASQSIGTYLAWYQQKPGQAPRLLIYDASSRATGIPARFSGSGSGTEFTLTISSLQSEDFAVYYCQQYKSYPLTFGGGTKVEIKR", "valueKind": "binding result", "reading": "no binding"}
{"binder": "Polypeptide No. 51 (scFv, V domains shown, scFv) VH: QVQLVQSGAEVKKPGSSVKVSCKASGGTFSSYAISWVRQAPGQGLEWMGEIIPFFGTANYAQKFQGRVTITADESTSTAYMELSSLRSEDTAVYYCARAEYGGDLDYWGQGTLVTVSS VL: DIQMTQSPSSLSASVGDRVTITCQASQDISNLLNWYQQKPGKAPKLLIYAASTLQSGVPSRFSGSGSGTDFTLTISSLQPEDFATYYCQQSYNTPWTFGPGTKVDIKR", "valueKind": "binding result", "reading": "no binding"}
{"binder": "Polypeptide No. 74 (scFv, V domains shown, scFv) VH: QVQLVQSGAEVKKPGSSVKVSCKASGYTFTKYEINWVRQAPGQGLEWMGGIIPIFGTANYAQKFQGRVTITADESTSTAYMELSSLRSEDTAVYYCARGSGWYTPLFDYWGQGTLVTVSS VL: DIQMTQSPSSLSASVGDRVTITCRASQGISNNLNWYQQKPGKAPKLLIYDASYLETGVPSRFSGSGSGTDFTLTISSLQPEDFATYYCQQSYSAPLTFGQGTKVEIKR", "valueKind": "binding result", "reading": "binds"}
